# subjectOfTest: T1, human CXCR2 (human, UniProt P25025 1-360)
# T1 sequence: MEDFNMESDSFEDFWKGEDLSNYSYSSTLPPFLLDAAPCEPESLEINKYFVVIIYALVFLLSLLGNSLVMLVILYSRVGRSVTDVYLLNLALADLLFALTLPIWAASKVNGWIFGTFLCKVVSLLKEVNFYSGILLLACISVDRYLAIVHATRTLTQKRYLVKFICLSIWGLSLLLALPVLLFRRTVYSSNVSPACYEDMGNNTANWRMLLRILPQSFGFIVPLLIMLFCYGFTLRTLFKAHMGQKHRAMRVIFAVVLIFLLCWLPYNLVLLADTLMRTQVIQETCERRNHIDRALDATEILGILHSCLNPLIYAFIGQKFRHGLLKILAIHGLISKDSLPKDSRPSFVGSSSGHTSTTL
# experiment: cell-based or functional assay
Parameter: IC50, CXCL1, Tango assay. Scope: all listed entries.
Dear colleague, please return just the value in nM, with no unit written.

Known IC50, CXCL1, Tango assay results, listed for orientation:
INSERT INTO assay_data (binder, observable, unitofmeasure, testresult) VALUES
  ('BKO-4A8 variant VL N52S (antibody, human IgG4 S228P, lambda, V domains shown, IgG4 S228P, lambda; parental heavy chain; also called 4A8 VL N52S) VH: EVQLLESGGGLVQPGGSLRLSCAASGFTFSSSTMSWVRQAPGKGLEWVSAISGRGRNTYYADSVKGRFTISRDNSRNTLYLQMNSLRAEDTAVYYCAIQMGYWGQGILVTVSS VL: QSALTQPPSASGSPGQSVTISCIGTSSDVGGYNYVSWYQQHPDKAPKLMIYEVSKRPSGVPDRFSGSKSGNTASLTVSGLQAEDEADYYCSSYAGNNNFGVFGGGTKLTVLG', 'IC50, CXCL1, Tango assay', 'nM', 0.214),
  ('BKO-4A8 variant VH M34H (antibody, human IgG4 S228P, lambda, V domains shown, IgG4 S228P, lambda; parental light chain; also called 4A8 VH M34H) VH: EVQLLESGGGLVQPGGSLRLSCAASGFTFSSSTHSWVRQAPGKGLEWVSAISGRGRNTYYADSVKGRFTISRDNSRNTLYLQMNSLRAEDTAVYYCAIQMGYWGQGILVTVSS VL: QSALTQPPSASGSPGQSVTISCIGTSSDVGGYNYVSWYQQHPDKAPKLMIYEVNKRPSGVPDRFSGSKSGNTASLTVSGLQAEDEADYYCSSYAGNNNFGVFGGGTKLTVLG', 'IC50, CXCL1, Tango assay', 'nM', 0.186),
  ('BKO-4A8 variant VL N94S (antibody, human IgG4 S228P, lambda, V domains shown, IgG4 S228P, lambda; parental heavy chain; also called 4A8 VL N94S) VH: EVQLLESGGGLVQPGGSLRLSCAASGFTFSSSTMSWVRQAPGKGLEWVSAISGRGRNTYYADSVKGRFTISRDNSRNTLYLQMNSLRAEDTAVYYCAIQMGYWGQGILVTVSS VL: QSALTQPPSASGSPGQSVTISCIGTSSDVGGYNYVSWYQQHPDKAPKLMIYEVNKRPSGVPDRFSGSKSGNTASLTVSGLQAEDEADYYCSSYAGSNNFGVFGGGTKLTVLG', 'IC50, CXCL1, Tango assay', 'nM', 0.149),
  ('BKO-4A8 variant VH M96Q (antibody, human IgG4 S228P, lambda, V domains shown, IgG4 S228P, lambda; parental light chain; also called 4A8 VH M96Q) VH: EVQLLESGGGLVQPGGSLRLSCAASGFTFSSSTMSWVRQAPGKGLEWVSAISGRGRNTYYADSVKGRFTISRDNSRNTLYLQMNSLRAEDTAVYYCAIQQGYWGQGILVTVSS VL: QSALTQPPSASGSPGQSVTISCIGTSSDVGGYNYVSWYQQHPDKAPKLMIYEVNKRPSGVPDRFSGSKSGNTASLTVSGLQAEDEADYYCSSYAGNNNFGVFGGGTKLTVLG', 'IC50, CXCL1, Tango assay', 'nM', 0.33);

Recorded IC50, CXCL1, Tango assay for BKO-4A8 variant VH M34Q (antibody, human IgG4 S228P, lambda, V domains shown, IgG4 S228P, lambda; parental light chain; also called 4A8 VH M34Q) VH: EVQLLESGGGLVQPGGSLRLSCAASGFTFSSSTQSWVRQAPGKGLEWVSAISGRGRNTYYADSVKGRFTISRDNSRNTLYLQMNSLRAEDTAVYYCAIQMGYWGQGILVTVSS VL: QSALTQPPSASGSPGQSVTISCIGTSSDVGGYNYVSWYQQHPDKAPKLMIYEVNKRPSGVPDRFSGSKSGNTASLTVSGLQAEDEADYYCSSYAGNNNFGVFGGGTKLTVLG , please?
0.242
